Test: Human HepG2 cell viability assay in 384 well format
Assay type: toxicity, cell-based
Set-up: dose 125 nL, time 70.5 hour; concentration not given beside the values
Settings: HepG2 cells, read-out: Inhibition
Metric Name: cytotoxicity at 70.5 h (%)

Compound	Unit	Reported Value
Cc1ocnc1C(=O)N1CCCC1c1ccc(C(=O)N2CCSCC2)s1 (stereo unspecified)	%	-7.81
CN1CCN(C2COC3(CCN(c4ccc(C#N)cc4)CC3)C2)CC1 (stereo unspecified)	%	-6.07
Cc1ccc(-c2nnc(CCC(=O)NCc3cn(C)nc3C)o2)s1	%	-9.67
CNc1snc(C)c1C(=O)N1CCC(Nc2ccc(C)nn2)CC1	%	-3.58
CCN(Cc1noc(C)n1)C(=O)C(c1cccc(C)c1)N(C)C (stereo unspecified)	%	10.7
CC(C)=CCN1CCN(Cc2nccn2C)[C@H]2CS(=O)(=O)C[C@H]21	%	-7.09
O=C(c1ccc(Cl)s1)N1CC(c2nc(-c3ccc[nH]c3=O)no2)C1	%	-8.84
CCc1nc(CN2CCCN(C(=O)c3occc3C)CC2)cs1	%	-7.91
CN(CC(O)C1CC1)C(=O)c1ccc(-c2nc(C3CC3)n[nH]2)cc1 (stereo unspecified)	%	-7.71
Nc1ncc(CN2CCC(O)(c3ccccc3F)CC2)cn1	%	-2.71
O=C(c1ccoc1)N1CCN(Cc2ccccc2F)CC1	%	-3.32

* * *

Test: Human HepG2 cell viability assay in 384 well format
Type: toxicity, cell-based
Design: dose 125 nL, time 70.5 hour; concentration not given beside the values
Conditions: HepG2 cells, read-out: Inhibition
Metric Name: cytotoxicity at 70.5 h

Molecule	Reported Value
Nc1c(N2CCCC2)ncnc1N1CCOCC1	20.6%
Cc1cnn(CC2CCCN2c2ccc(C#N)cn2)c1 (stereo unspecified)	6.54%
COc1ccc(CCCN(C)C(=O)c2cc(C(C)=O)c[nH]2)cc1OC	-8.38%
CC1(C)CN(CC(F)(F)F)CCN1CC(=O)N1CCCCC1	11.7%
CC(NC(=O)NCCCn1cccn1)c1ccc2c(c1)OCCCO2 (stereo unspecified)	13.2%
CCC(C)c1noc(C2CCN(C(=O)c3cccnc3)CC2)n1 (stereo unspecified)	-12.8%

* * *

Test: Human HepG2 cell viability assay in 384 well format
Format: toxicity, cell-based
Design: dose 125 nL, time 70.5 hour; concentration not given beside the values
Details: HepG2 cells, read-out: Inhibition
Recorded cytotoxicity at 70.5 h by entry
Metric Name: cytotoxicity at 70.5 h (%)

Compound	Reported Value
O=C(O)c1cc(C2CC2)nc2c(Cl)cnn12	-7.04
COc1ccccc1N1CCN(C(=O)c2ccnc(N(C)C)c2)CC1	36.2
NC(=O)c1ccccc1-n1cc(-c2cccc(C(=O)O)c2)cn1	-9.16
CNc1cc(C)nc(-c2cc(NC3CCNCC3)nc3[nH]ccc23)n1	-4.41
O=S(=O)(NCc1cn2ccccc2n1)N1CCOCC1	-12.1
CCn1nc(CC(C)C)cc1C(=O)N1CCCC(C#N)C1 (centres undefined)	0.732
Cc1cccc(CNC(=O)Nc2ccc3c(c2)CCCC(=O)N3)c1	-1.4
CC(=O)N1CCCC(c2cccc(-n3ccnc3)n2)C1 (centres undefined)	-7.9
Cc1nnc2ccc(N3CCN(CCc4ccccn4)CC3)nn12	-0.337
CC(C)c1nc(C2CCCN2CCc2ccncc2)no1 (centres undefined)	16.2
Cc1nc(N(C)C)nc(C)c1NC(=O)c1ccco1	-3.93
Cc1ccc(C#N)c(N2CCC(c3nccn3CCN(C)C)CC2)n1	-7.04
Cc1ccc(S(=O)(=O)NC(=O)COc2cccc(C(N)=O)c2)s1	-10.7
Cc1ccc(CNC(=O)NCCCn2nc3ccccn3c2=O)s1	30.2
N#Cc1cccc(CN2C[C@H](OCC3CCOCC3)[C@H]3COC[C@H]32)c1	-5.67
COc1ccc(-c2nc(CN3CCCC(OC)C3)c(C)o2)c(F)c1 (centres undefined)	10.8
CC(=O)N1CCC(C(=O)N2CCCC(Cc3ccccn3)C2)CC1 (centres undefined)	-8.43
CN(C)S(=O)(=O)N1CCC(c2ccncn2)CC1	-11.3
CC(=O)N1CCCC2(CCN(c3ccccc3)C2=O)C1 (centres undefined)	12.8
Cc1nn(C)c(N2CCCN(C)CC2)c1CNC(=O)C(C)(C)C	-0.257
O=C1CC[C@H]2[C@@H](CCN2Cc2ccco2)N1	-8.59
CCN(CCS(=O)(=O)c1ccc(Cl)cc1)Cc1ccc(OC)c(OC)c1	-12.9
Cc1nc(CN2CCOC(CNc3cccnn3)C2)oc1C (centres undefined)	30.3
Cc1nc(Nc2nnc(C)s2)cc(C2CCCN2C)n1 (centres undefined)	7.92
